target: recombinant human EP-2 receptor (Homo sapiens); construct: stably transfected with full length cDNA encoding human Prostaglandin E2; assay: In vitro antagonist potency against recombinant human prostaglandin E2 (EP-2) receptor in CHO cells (cAMP); conditions: CHO cells expressing recombinant human EP-2 receptor, stimulated with PGE2 5 nM; cAMP readout; Ki from IC50 by Cheng-Prusoff; read-out: EP2 Ki
Response field class: enum, chosen by comparing Ki against range A (below 60 nM), range B (60 nM to below 100 nM), range C (100 nM or more)

Below are worked cases with known answers.
{"columns": ["smiles_entry", "group"],
 "data": [
  ["COc1cc(OC)cc(C(=O)N2CC(Cn3nnc(-c4ccc(OC)c(OC)c4)n3)(C(=O)O)C2)c1", "range C"],
  ["O=C(c1ccc(F)cc1)N1CC(Cn2nnc(-c3ccc(F)cc3)n2)(C(=O)O)C1", "range B"],
  ["Cc1ccc(C(=O)N2CC(Cn3nnc(-c4c(F)cccc4F)n3)(C(=O)O)C2)cc1", "range A"],
  ["O=C(c1ccc(F)cc1)N1CC(Cn2nnc(-c3ccc(F)c(F)c3)n2)(C(=O)O)C1", "range B"],
  ["O=C(Nc1cccc(Cl)c1Cl)N1CC(Cn2nnc(-c3ccccc3)n2)(C(=O)O)C1", "range C"],
  ["O=C(c1ccccc1)N1CC(Cn2nnc(-c3ccccc3)n2)(C(=O)O)C1", "range C"],
  ["COc1cccc(-c2nnn(CC3(C(=O)O)CN(C(=O)c4ccc(F)cc4)C3)n2)c1", "range A"],
  ["O=C(c1ccc(F)cc1)N1CC(Cn2nnc(-c3cccc(Oc4ccccc4)c3)n2)(C(=O)O)C1", "range C"]
]}

# bin lookup: classify O=C(c1ccc(F)cc1)N1CC(Cn2nnc(-c3ccc(Cl)cc3)n2)(C(=O)O)C1 by its Ki
range A

Assign a category based on measured Ki for COc1ccc(-c2nnn(CC3(C(=O)O)CN(C(=O)c4cccc(F)c4)C3)n2)cc1OC and give only the class name.
range C

Could you tell me which band O=C(c1ccc(Cl)cc1)N1CC(Cn2nnc(-c3ccc(Cl)cc3)n2)(C(=O)O)C1 belongs to?
range A

----------
target: recombinant human EP-2 receptor (Homo sapiens, UniProt P43116); construct: stably transfected with full length cDNA encoding human Prostaglandin E2; assay: In vitro antagonist potency against recombinant human prostaglandin E2 (EP-2) receptor in CHO cells (cAMP); conditions: CHO cells expressing recombinant human EP-2 receptor, stimulated with PGE2 5 nM; cAMP readout; Ki from IC50 by Cheng-Prusoff; read-out: EP2 Ki
Sequence (P43116 whole entry): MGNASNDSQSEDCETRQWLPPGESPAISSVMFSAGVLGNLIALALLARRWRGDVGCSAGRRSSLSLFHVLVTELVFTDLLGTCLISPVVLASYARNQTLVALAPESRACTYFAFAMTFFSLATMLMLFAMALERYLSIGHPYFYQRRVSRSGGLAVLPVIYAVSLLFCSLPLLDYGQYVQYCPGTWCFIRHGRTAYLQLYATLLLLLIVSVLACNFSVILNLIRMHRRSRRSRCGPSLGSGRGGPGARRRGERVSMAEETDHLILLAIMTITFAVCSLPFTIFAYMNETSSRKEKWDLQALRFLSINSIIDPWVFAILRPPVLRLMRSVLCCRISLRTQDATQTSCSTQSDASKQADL
pKi: −log10 of the molar value.
Rule: pKi of 7 or more gives met; anything lower gives not met.

Worked set:
{"columns": ["smiles_entry", "target_under_test", "group"],
 "data": [
  ["CCOc1ccccc1C(=O)N1CC(Cn2nnc(Cc3c(F)cccc3Cl)n2)(C(=O)O)C1", "recombinant human EP-2 receptor (Homo sapiens, UniProt P43116)", "not met"],
  ["CCOc1ccccc1C(=O)N1CC(Cn2nnc(-c3ccc(C(F)(F)F)cc3)n2)(C(=O)O)C1", "recombinant human EP-2 receptor (Homo sapiens, UniProt P43116)", "met"],
  ["O=C(c1ccc(Cl)cc1)N1CC(Cn2nnc(-c3cc(Cl)cc(Cl)c3)n2)(C(=O)O)C1", "recombinant human EP-2 receptor (Homo sapiens, UniProt P43116)", "met"],
  ["O=C(c1ccc(Cl)cc1)N1CC(Cn2nnc(-c3cccc(F)c3)n2)(C(=O)O)C1", "recombinant human EP-2 receptor (Homo sapiens, UniProt P43116)", "met"],
  ["COc1cccc(C(=O)N2CC(Cn3nnc(-c4ccc(C(C)(C)C)cc4)n3)(C(=O)O)C2)c1", "recombinant human EP-2 receptor (Homo sapiens, UniProt P43116)", "not met"],
  ["O=C(c1ccc(F)cc1)N1CC(Cn2nnc(-c3ccccc3Cl)n2)(C(=O)O)C1", "recombinant human EP-2 receptor (Homo sapiens, UniProt P43116)", "not met"]
]}

Tell me whether pKi is at least 7 here: COc1ccc(-c2nnn(CC3(C(=O)O)CN(C(=O)c4ccccc4)C3)n2)cc1OC
met
